system: STIL CCD peptide; assay: AUC sedimentation velocity (SV), oligomeric state; type: physicochemical; settings: 10 µM; AUC-SV, 60 krpm, pH 6.8
This section presents substances with their documented f/f0 values.
Kindly provide the number alone.

# count of solved cases: 3
{"Substance": "L SPDLYRF LTELDRQ LRLLQAQ IQRLLEA QSL-NH2 [STIL CCD718–749 A722L Q729L, STIL CCD peptide, double mutant of A722L and Q729L]", "System Name": "STIL CCD peptide", "f/f0": 1.411}
{"Substance": "L SPDLYRF LTEQDRQ LRLLQAQ IQRLLEA QSL-NH2 [STIL CCD718–749 A722L, STIL CCD peptide with A722L mutation]", "System Name": "STIL CCD peptide", "f/f0": 1.458}
{"Substance": "L SPDAYRF LTELDRQ LRLLQAQ IQRLLEA QSL-NH2 [STIL CCD718–749 Q729L, STIL CCD peptide with stabilising Q729L mutation; PDB 8oyl]", "System Name": "STIL CCD peptide", "f/f0": 1.250}

Give reported f/f0 value for L SPDAYRF LTEQDRQ LRLEQAQ IQRLLEA QSL-NH2 [STIL CCD718–749 L736E, STIL CCD peptide with destabilising L736E mutation; PDB 8oyk]
1.460
